target: T1, MotA K59E, full length (bacteriophage T4, UniProt P22915 1-211, K59E)
T1 sequence (looked up): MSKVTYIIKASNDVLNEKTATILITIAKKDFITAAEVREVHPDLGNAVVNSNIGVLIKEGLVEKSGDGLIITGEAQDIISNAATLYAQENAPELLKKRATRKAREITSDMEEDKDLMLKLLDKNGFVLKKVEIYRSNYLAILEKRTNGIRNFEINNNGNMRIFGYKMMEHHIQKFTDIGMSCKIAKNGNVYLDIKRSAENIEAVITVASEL
test_summary: fluorescence polarisation
Where no end group is shown, it is not given here. The star is where a group is joined. FITC = O=C1OC2(c3ccc(O)cc3Oc3cc(O)ccc32)c2ccc(NC(=S)*)cc21
readout_name: Kd (µM)
Please respond with the number in µM and leave the unit unwritten.

Answer with reported Kd of {FITC}-PSRSEVLRSFLDD (peptide, UniProt P00579 601-613, looked up) [fluorescein-tagged σ4-H5 peptide (σ^70 residues 601-613)]
10
